All figures here come from ChEMBL document CHEMBL5154826.

Test: Oral bioavailability in Sprague-Dawley rat at 2 mg/kg
Format: ADME, organism-based
Details: in vivo
RECORDED_ENDPOINT: bioavailability
A complete answer gives the number and then names the unit.

Need bioavailability for each of these compounds.
1. c1cncc(-c2cnc(NCc3cccc4c3CCO4)n3cnnc23)c1
2. CS(=O)(=O)c1ccc(-c2cnc(NCc3ccco3)n3cnnc23)cc1
3. COc1cccc(F)c1CNc1ccc(-c2cnc(C)nc2C)c2nncn12
4. Cc1ncccc1-c1cnc(NCc2c(F)ccc3c2CCO3)n2cnnc12

71%
62%
109%
69%

* * *

Target: Muscarinic acetylcholine receptor M2 (Homo sapiens, UniProt P08172)
Sequence (P08172 whole entry): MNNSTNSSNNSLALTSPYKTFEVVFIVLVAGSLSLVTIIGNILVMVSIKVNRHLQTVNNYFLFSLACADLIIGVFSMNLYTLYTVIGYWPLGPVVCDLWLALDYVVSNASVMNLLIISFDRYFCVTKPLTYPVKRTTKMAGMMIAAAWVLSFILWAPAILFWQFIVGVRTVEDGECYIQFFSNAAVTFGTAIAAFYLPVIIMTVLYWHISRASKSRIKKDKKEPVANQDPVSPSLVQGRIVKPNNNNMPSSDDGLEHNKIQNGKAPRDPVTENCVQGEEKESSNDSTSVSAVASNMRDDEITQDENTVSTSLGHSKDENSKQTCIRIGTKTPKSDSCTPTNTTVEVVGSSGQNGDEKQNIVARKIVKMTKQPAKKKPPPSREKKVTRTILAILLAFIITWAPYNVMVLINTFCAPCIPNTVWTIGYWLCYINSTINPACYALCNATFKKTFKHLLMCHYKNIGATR
Assay: Agonist activity at muscarinic M2 receptor (unknown origin)
RECORDED_ENDPOINT: IC50
Enter the number, and then the unit.

response.value for Cc1ncccc1-c1cnc(NCc2c(F)ccc3c2CCO3)n2cnnc12 (field: IC50) = 8.9 µM

* * *

Test: High throughput solubility of the compound at pH 4 after 16 to 24 hrs by MS/MS analysis
Assay type: physicochemical
Settings: buffer, time 16-24 hrs
RECORDED_ENDPOINT: solubility (µM)
One number for each entry, in µM.

{"columns": ["COMPOUND_STRUCTURE", "solubility, µM"],
 "data": [
  ["Cc1ncccc1-c1cnc(NCc2c(F)ccc3c2CCO3)n2cnnc12.Cl", 494]
]}

Kindly review the next compound as well.
Memo: Cc1ncccc1-c1cnc(NCc2c(F)ccc3c2CCO3)n2cnnc12 , reported solubility: 266

* * *

Experiment: High throughput solubility of the compound at pH 7 after 16 to 24 hrs by MS/MS analysis
Format: physicochemical
Conditions: buffer, time 16-24 hrs, read-out: solubility
Please go through the items and note down their solubility.
One number for each entry, in µM.

{"columns": ["COMPOUND_STRUCTURE", "DISPLAY_UNIT", "solubility"],
 "data": [
  ["COc1cccc(F)c1CNc1ccc(-c2cnc(C)nc2C)c2nncn12", "µM", 2.6]
]}

Lookup result for Cc1ncccc1-c1cnc(NCc2c(F)ccc3c2CCO3)n2cnnc12 ; measured solubility: 19

* * *

Assay: Ratio of drug level in human blood to plasma
Assay type: ADME, cell-free
Conditions: whole blood
RECORDED_ENDPOINT: blood plasma ratio
One number for each entry.

Documented blood plasma ratio of Cc1ncccc1-c1cnc(NCc2c(F)ccc3c2CCO3)n2cnnc12 : 0.78

* * *

Assay: High throughput solubility of the compound at pH 1 after 16 to 24 hrs by MS/MS analysis
Format: physicochemical
Conditions: buffer, time 16-24 hrs
RECORDED_ENDPOINT: solubility

{"columns": ["COMPOUND_STRUCTURE", "solubility"],
 "data": [
  ["Cc1ncccc1-c1cnc(NCc2c(F)ccc3c2CCO3)n2cnnc12", "> 13 mM"]
]}

Next item in the queue.
// field: solubility; key: COc1cccc(F)c1CNc1ccc(-c2cnc(C)nc2C)c2nncn12 ; value = > 13 mM

* * *

Assay: Plasma protein binding in rat at 1 uM measured after 6 hrs LC-MS/MS analysis
Type: ADME, cell-free
Conditions: read-out: PPB (converted)
What fraction unbound at 6 h, 1 µM was measured for each of the following?
Give bare numbers.

{"columns": ["COMPOUND_STRUCTURE", "fraction unbound at 6 h, 1 µM"],
 "data": [
  ["Cc1ncccc1-c1cnc(NCc2c(F)ccc3c2CCO3)n2cnnc12", 0.13]
]}

Per the record, COc1cccc(F)c1CNc1ccc(-c2cnc(C)nc2C)c2nncn12 has fraction unbound at 6 h, 1 µM of 0.1

* * *

Experiment: Plasma clearance in dog
Assay type: ADME, cell-free, Canis lupus familiaris
For each record, write down the corresponding clearance.
Numbers only, in mL/min/kg.

{"columns": ["COMPOUND_STRUCTURE", "clearance [mL/min/kg]"],
 "data": [
  ["COc1cccc(F)c1CNc1ccc(-c2cnc(C)nc2C)c2nncn12", 13]
]}

Value of clearance reported for the molecule Cc1ncccc1-c1cnc(NCc2c(F)ccc3c2CCO3)n2cnnc12 is 13

* * *

Molecular target: Cytochrome P450 2D6 (Homo sapiens)
Sequence (P10635 whole entry): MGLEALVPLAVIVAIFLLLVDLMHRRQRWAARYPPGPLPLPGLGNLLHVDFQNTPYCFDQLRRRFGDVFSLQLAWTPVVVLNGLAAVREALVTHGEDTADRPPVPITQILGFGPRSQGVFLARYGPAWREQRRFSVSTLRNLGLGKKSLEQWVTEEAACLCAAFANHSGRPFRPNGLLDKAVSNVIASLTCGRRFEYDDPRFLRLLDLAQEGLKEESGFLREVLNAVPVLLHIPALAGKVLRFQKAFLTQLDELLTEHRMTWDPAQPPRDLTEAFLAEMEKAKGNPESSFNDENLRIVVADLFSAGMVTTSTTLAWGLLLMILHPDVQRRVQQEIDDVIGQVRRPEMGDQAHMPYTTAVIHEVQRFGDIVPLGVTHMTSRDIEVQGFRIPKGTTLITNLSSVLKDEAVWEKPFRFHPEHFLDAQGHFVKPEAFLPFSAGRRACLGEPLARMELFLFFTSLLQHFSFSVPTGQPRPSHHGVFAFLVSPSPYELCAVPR
Test: Inhibition of CYP2D6 in human liver microsomes using bufuralol as substrate incubated for 10 mins in presence of NADPH by LC-MS/MS analysis
Assay type: ADME, Microsome
RECORDED_ENDPOINT: log10 of IC50 (log10 of the value in µM)
Units before log transform: µM; reported quantity: IC50; transform: log10.

{"columns": ["COMPOUND_STRUCTURE", "log10 of IC50"],
 "data": [
  ["Cc1ccc(-c2cnc(NCc3c(F)ccc4c3CCO4)n3cnnc23)c(C)n1", 1.49]
]}

// for each molecule below, give its log10 of IC50
1. c1cncc(-c2cnc(NCc3cccc4c3CCO4)n3cnnc23)c1
2. Fc1ccc2c(c1CNc1ncc(-c3cccnc3)c3nncn13)CCO2
3. Cc1ccc(-c2cnc(NCc3c(F)ccc4c3CCO4)n3cnnc23)cn1
4. COc1cccc(F)c1CNc1ccc(-c2ccc(C)nc2C)c2nncn12
5. COc1cccc(F)c1CNc1ccc(-c2cccnc2)c2nncn12
6. c1cc(CNc2ncc(-c3ccncc3)c3nncn23)c2c(c1)OCC2

1: -1.00; 2: -1.72; 3: 0.87; 4: 1.40; 5: -0.40; 6: -0.70

* * *

Assay: Lipophilicity, logD of the compound at pH 7.4 by LC with tandem MS analysis
Assay type: physicochemical
Conditions: buffer, read-out: logD
RECORDED_ENDPOINT: logD
Give bare numbers.

Solved cases (2 shown):
{"columns": ["COMPOUND_STRUCTURE", "RECORDED_ENDPOINT", "MEASURED"],
 "data": [
  ["CS(=O)(=O)c1ccc(-c2cnc(NCc3ccco3)n3cnnc23)cc1", "logD", 1.8],
  ["COc1cccc(F)c1CNc1ccc(-c2cnc(C)nc2C)c2nncn12", "logD", 3.8]
]}

Batch request: logD for each of the following molecules.
1. c1cc(CNc2ncc(-c3ccncc3)c3nncn23)c2c(c1)OCC2
2. c1cncc(-c2cnc(NCc3cccc4c3CCO4)n3cnnc23)c1

2.5
2.6

* * *

Target: UniProtKB P10635
Assay: Inhibition of CYP2D6 human liver microsomes using bufuralol as substrate incubated for 15 mins by LC-MS/MS analysis
Format: ADME, Microsome
pIC50: −log10 of the molar value.
RECORDED_ENDPOINT: pIC50

// compound Cc1ncccc1-c1cnc(NCc2c(F)ccc3c2CCO3)n2cnnc12 , assay UniProtKB P10635, pIC50 value: < 4.74

* * *

Assay: Plasma clearance in mouse assessed as hepatic extraction
Format: ADME, cell-free
Conditions: read-out: ERH
RECORDED_ENDPOINT: hepatic extraction ratio

GET /value?item= Cc1ncccc1-c1cnc(NCc2c(F)ccc3c2CCO3)n2cnnc12 &field=hepatic extraction ratio returns 0.42

* * *

Assay: Drug metabolism in bile duct cannulated Wistar Han rat assessed as unmodified compound recovery in bile at 3 mg/kg, iv after 8 hrs by LC-MS/MS analysis
Assay type: ADME, organism-based
Settings: read-out: Drug metabolism
RECORDED_ENDPOINT: dose excreted at 8 h (%)
Answers are plain numbers, in %.

compound CS(=O)(=O)c1ccc(-c2cnc(NCc3ccco3)n3cnnc23)cc1 , dose excreted at 8 h observed: 0.5

* * *

Biological target: UniProt:P08913
Sequence (P08913 whole entry): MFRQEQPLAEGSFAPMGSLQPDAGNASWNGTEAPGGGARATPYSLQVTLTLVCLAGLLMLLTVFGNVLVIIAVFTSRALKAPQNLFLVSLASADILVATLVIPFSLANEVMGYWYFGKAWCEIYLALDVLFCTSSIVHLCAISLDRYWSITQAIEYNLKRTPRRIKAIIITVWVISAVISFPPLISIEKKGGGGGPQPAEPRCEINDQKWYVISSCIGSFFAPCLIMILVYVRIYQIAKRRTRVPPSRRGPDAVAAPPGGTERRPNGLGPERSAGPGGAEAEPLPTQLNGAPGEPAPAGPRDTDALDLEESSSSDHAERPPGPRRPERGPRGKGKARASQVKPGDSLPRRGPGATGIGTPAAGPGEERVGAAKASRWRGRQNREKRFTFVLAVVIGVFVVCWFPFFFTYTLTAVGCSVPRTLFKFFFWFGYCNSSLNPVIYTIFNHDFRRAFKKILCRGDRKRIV
Assay: Agonist activity at adrenergic receptor alpha2a (unknown origin)
Assay type: functional
RECORDED_ENDPOINT: pIC50
Give bare numbers, as −log10 of the molar value.

Reported pIC50 ( Cc1ncccc1-c1cnc(NCc2c(F)ccc3c2CCO3)n2cnnc12 ) = 5.02

* * *

Test system: KARPAS-422
Assay: Antiproliferative activity against human KARPAS-422 cells expressing EZH2 mutant assessed as inhibition of cell growth after 14 days by beckman coulter counting method
Type: functional
Conditions: Homo sapiens, KARPAS-422, 336 h; time 14 day
Record form. Attribute: GI50. Fill in for each entry.
One number for each entry, in nM.

{"columns": ["COMPOUND_STRUCTURE", "MEASURED"],
 "data": [
  ["c1cncc(-c2cnc(NCc3cccc4c3CCO4)n3cnnc23)c1", 12]
]}

Please give GI50, item by item, for the list that follows.
1. Cc1ncccc1-c1cnc(NCc2c(F)ccc3c2CCO3)n2cnnc12
2. c1cc(CNc2ncc(-c3ccncc3)c3nncn23)c2c(c1)OCC2
3. COc1cccc(F)c1CNc1ccc(-c2cnc(C)nc2C)c2nncn12
4. CS(=O)(=O)c1ccc(-c2cnc(NCc3ccco3)n3cnnc23)cc1

4000
10
6700
80

* * *

Test: Ratio of drug level in rat blood to plasma
Type: ADME, cell-free
RECORDED_ENDPOINT: blood plasma ratio
Numbers only.

Form: compound = Cc1ncccc1-c1cnc(NCc2c(F)ccc3c2CCO3)n2cnnc12 ; blood plasma ratio = 0.98

* * *

Consider the following compounds; for each one, report its microsomal CLint.
Experiment: Metabolic stability in human microsomes assessed as intrinsic clearance
Format: ADME, Microsome
Conditions: read-out: CLH
Answers are plain numbers, in µL/min/mg.

{"columns": ["COMPOUND_STRUCTURE", "DISPLAY_UNIT", "microsomal CLint"],
 "data": [
  ["COc1cccc(F)c1CNc1ccc(-c2cnc(C)nc2C)c2nncn12", "µL/min/mg", 9]
]}

Recorded microsomal CLint (compound Cc1ncccc1-c1cnc(NCc2c(F)ccc3c2CCO3)n2cnnc12 ): 33
